biological target: Human recombinant SSAO/VAP-1 (Homo sapiens (Human)); assay: Human recombinant SSAO/VAP-1 amine oxidase inhibition; settings: 30 min preincubation at 37° C., 600 μM benzylamine
Sequence (Q16853 34-763): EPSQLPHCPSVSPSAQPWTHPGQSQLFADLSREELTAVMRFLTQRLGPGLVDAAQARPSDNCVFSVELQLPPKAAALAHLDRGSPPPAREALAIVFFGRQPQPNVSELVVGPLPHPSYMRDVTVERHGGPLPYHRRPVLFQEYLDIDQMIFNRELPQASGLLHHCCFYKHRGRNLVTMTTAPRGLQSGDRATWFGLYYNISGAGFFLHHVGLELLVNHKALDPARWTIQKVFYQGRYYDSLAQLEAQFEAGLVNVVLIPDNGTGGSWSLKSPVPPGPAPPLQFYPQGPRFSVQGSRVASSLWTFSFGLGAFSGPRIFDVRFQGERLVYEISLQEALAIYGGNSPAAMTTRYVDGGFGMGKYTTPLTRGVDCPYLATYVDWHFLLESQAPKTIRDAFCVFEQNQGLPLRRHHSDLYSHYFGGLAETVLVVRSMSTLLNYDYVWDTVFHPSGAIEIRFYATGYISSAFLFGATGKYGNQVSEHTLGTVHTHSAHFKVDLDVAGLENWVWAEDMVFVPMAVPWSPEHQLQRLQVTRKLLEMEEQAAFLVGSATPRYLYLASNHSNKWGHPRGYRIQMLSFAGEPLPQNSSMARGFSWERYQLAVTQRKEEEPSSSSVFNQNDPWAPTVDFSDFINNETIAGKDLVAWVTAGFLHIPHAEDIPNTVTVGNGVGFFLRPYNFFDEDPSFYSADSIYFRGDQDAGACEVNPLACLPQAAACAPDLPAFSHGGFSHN
pIC50: −log10 of the molar value. Counter-ions that a name gives are not always drawn.
Readings of pIC50 for the listed molecules

molecule: Cc1c(Cc2ccc(S(=O)(=O)N(C)C)cc2)c2ncccc2n1C/C(F)=C/CN [Compound 8, dihydrochloride]
pIC50: < 5.52
--
molecule: Cc1c(Cc2ccc(S(C)(=O)=O)nc2)c2nc(C3CC3)ccc2n1C/C(F)=C/CN [Compound 27, trihydrochloride]
pIC50: < 5.52
--
molecule: Cc1ccc2c(n1)c(Cc1ccc(S(C)(=O)=O)cc1)c(C)n2C/C(F)=C/CN [Compound 12, dihydrochloride]
pIC50: < 5.52
--
molecule: COC(=O)c1ccc2c(c1)c(Cc1ccc(S(=O)(=O)N(C)C)cc1)c(C)n2C/C(F)=C/CN [Compound 2, hydrochloride]
pIC50: < 5.52
--
molecule: Cc1ncc2c(n1)c(Cc1ccc(S(C)(=O)=O)cc1)c(C)n2C/C(F)=C/CN [Compound 38, dihydrochloride]
pIC50: < 5.52

Entry Cc1c(Cc2ccc(S(=O)(=O)N(C)C)cc2)c2nc(C(C)(C)O)ccc2n1C/C(F)=C/CN [Compound 28, dihydrochloride] , pIC50 reported as < 5.52

Entry Cc1ccc2c(n1)c(Cc1ccc(S(=O)(=O)N(C)C)cc1)c(C)n2C/C(F)=C/CN [Compound 9, dihydrochloride] , pIC50 reported as < 5.52

Entry CN(C)C(=O)c1c(Cc2ccc(S(=O)(=O)N(C)C)cc2)c2ccccc2n1C/C(F)=C/CN [Compound 5, hydrochloride] , pIC50 reported as < 5.52

Entry Cc1c(Oc2ccc(S(=O)(=O)N(C)C)cc2)c2ccccc2n1C/C(F)=C/CN [Compound 21, hydrochloride] , pIC50 reported as < 5.52

Entry Cc1c(Cc2cccc(S(=O)(=O)N(C)C)c2)c2ncccc2n1C/C(F)=C/CN [Compound 18, dihydrochloride] , pIC50 reported as < 5.52

Entry Cc1c(Cc2ccc(S(=O)(=O)N(C)C)cc2)c2nc(F)ccc2n1C/C(F)=C/CN [Compound 23, dihydrochloride] , pIC50 reported as < 5.52

These entries and their values trace back to patent US10717734B2.
